Entry source: ChEMBL document CHEMBL1157538

Assay: Apparent permeability across pig LLC-PK1 cells
Format: ADME, cell-based, Sus scrofa
Conditions: read-out: permeability
readoutKind: Papp (×10⁻⁶ cm/s)
Numbers only here, please. The scale is ×10⁻⁶ cm/s.

Ask: Could you share which Papp value was measured for "COc1ccc2c(Oc3ccc(NC(=O)c4c(C)n(CC(C)(C)O)n(-c5ccccc5)c4=O)nc3)ccnc2c1" ?
Result: 27

----------
Target: Hepatocyte growth factor receptor (Homo sapiens, UniProt P08581, D1228H)
Sequence (P08581 25-1390 D1228H limits assumed): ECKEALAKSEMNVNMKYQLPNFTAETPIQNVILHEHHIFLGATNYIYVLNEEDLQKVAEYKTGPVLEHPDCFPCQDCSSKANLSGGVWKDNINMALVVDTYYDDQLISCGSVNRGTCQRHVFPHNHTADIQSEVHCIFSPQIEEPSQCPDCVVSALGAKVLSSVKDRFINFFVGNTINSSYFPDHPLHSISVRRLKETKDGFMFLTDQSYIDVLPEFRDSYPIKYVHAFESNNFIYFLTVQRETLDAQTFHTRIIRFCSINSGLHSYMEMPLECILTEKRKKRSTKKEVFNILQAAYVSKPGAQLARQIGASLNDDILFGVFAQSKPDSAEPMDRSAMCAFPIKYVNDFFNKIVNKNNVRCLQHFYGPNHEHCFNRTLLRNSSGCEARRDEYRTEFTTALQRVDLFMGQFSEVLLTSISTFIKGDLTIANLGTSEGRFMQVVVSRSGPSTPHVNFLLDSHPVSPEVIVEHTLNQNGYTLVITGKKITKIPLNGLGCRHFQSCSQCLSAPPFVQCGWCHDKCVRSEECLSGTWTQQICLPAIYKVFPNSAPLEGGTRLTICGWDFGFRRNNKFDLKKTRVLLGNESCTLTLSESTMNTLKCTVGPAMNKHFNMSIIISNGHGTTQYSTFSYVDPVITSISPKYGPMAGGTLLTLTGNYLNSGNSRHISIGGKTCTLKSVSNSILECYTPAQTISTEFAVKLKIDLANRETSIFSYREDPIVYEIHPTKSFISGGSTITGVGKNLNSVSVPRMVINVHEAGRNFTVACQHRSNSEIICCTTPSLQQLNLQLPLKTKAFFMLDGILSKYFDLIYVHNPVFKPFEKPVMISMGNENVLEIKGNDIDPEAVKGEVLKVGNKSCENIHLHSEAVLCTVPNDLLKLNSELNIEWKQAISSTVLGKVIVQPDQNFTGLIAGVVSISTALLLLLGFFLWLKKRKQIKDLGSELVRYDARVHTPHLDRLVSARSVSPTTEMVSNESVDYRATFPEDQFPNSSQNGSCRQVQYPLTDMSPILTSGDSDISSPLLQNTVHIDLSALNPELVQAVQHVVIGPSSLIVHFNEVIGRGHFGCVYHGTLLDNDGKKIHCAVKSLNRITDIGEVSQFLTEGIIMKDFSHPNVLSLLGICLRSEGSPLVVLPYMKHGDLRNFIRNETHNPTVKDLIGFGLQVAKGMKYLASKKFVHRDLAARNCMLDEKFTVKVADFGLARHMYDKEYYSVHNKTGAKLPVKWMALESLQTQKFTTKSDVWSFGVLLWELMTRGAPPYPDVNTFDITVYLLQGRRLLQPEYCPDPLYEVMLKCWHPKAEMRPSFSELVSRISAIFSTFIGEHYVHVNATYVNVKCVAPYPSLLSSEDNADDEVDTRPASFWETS
Assay: Inhibition c-Met D1228H mutant by HTRF assay
readoutKind: pKi
To interpret pKi, take it as minus log10 of a concentration measured in moles per litre.

Ask: Which value of pKi has been reported for "COc1ccc2c(Oc3ccc(NC(=O)c4c(C)n(CC(C)(C)O)n(-c5ccccc5)c4=O)nc3)ccnc2c1" in the records?
Result: 8.66

----------
Assay: Clearance in Sprague-Dawley rat at 1 mg/kg, iv or 10 mg/kg, po
Type: ADME, organism-based
Conditions: in vivo
readoutKind: clearance
# include the unit after the value

Ask: Tell me the measured clearance of "COc1ccc2c(Oc3ccc(NC(=O)c4c(C)n(CC(C)(C)O)n(-c5ccccc5)c4=O)nc3)ccnc2c1" , please.
Result: 12.2 mL/min/kg

----------
Test: Volume of distribution at steady state in cynomolgus monkey at 1 mg/kg, iv or 10 mg/kg, po
Format: ADME, organism-based, Macaca fascicularis
Details: in vivo, read-out: Vdss
readoutKind: Vd
Value and unit, in that order.

Ask: So what's the measured Vd for this one? "COc1ccc2c(Oc3ccc(NC(=O)c4c(C)n(CC(C)(C)O)n(-c5ccccc5)c4=O)nc3)ccnc2c1"
Result: 0.56 L/kg

----------
readoutKind: IC50
State the value, then name its unit.

Ask: # returns recorded IC50 (system: Tyrosine-protein kinase Blk (Homo sapiens, UniProt P51451)) for "COc1ccc2c(Oc3ccc(NC(=O)c4c(C)n(CC(C)(C)O)n(-c5ccccc5)c4=O)nc3)ccnc2c1"
Sequence (P51451 whole entry): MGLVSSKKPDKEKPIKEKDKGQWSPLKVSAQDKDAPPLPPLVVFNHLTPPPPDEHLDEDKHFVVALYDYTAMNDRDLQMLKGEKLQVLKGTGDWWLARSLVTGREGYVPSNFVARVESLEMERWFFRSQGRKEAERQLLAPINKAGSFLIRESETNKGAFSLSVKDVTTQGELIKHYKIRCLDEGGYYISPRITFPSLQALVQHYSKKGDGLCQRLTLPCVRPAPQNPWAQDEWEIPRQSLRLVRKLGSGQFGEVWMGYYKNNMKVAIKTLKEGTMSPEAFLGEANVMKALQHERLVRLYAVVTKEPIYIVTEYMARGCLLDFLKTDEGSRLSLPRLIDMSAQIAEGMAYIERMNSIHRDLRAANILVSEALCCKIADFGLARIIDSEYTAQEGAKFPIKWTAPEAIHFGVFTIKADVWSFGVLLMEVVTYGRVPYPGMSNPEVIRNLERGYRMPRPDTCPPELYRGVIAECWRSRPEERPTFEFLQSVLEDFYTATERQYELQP
Result: 519 nM

----------
Target: Hepatocyte growth factor receptor (Homo sapiens, UniProt P08581, M1250T)
Sequence (P08581 25-1390 M1250T limits assumed): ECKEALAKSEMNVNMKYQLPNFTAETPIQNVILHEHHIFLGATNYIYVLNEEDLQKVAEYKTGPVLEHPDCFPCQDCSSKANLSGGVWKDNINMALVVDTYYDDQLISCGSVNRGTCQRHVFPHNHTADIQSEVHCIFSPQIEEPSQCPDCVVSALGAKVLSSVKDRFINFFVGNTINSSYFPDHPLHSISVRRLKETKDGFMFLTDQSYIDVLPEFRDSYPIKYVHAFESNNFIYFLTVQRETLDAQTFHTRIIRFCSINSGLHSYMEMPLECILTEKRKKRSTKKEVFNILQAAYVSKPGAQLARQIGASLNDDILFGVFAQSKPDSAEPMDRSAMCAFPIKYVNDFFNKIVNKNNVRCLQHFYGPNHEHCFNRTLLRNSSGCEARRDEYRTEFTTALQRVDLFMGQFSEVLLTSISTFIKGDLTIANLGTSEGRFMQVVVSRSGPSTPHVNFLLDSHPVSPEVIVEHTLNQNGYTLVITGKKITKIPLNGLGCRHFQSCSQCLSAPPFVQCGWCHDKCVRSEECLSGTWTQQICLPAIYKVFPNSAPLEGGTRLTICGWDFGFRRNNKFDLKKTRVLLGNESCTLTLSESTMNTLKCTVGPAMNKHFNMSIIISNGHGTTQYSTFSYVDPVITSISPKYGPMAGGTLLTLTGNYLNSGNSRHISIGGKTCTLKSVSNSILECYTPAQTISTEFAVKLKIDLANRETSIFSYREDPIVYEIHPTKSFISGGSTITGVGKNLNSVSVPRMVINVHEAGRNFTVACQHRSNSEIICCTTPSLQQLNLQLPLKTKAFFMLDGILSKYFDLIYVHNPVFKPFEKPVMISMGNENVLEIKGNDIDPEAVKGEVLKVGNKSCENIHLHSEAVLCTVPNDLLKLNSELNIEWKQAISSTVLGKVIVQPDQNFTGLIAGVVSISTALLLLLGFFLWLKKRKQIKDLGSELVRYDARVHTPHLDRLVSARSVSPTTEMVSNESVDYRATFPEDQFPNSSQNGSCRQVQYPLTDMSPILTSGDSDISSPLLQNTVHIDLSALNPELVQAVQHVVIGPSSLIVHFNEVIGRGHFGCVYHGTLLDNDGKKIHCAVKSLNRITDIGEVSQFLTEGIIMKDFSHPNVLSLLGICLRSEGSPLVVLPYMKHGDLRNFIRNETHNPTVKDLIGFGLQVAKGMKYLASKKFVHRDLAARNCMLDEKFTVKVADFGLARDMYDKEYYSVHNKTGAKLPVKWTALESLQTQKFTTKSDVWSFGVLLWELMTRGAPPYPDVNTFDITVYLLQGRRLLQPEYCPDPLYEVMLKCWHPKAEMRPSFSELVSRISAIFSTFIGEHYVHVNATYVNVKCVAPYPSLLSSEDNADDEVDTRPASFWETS
Assay: Inhibition c-Met M1250T mutant by HTRF assay
readoutKind: Ki (nM)
Give your result in nM as a bare value.

Ask: Item "COc1ccc2c(Oc3ccc(NC(=O)c4c(C)n(CC(C)(C)O)n(-c5ccccc5)c4=O)nc3)ccnc2c1" with Hepatocyte growth factor receptor (Homo sapiens, UniProt P08581, M1250T) - Ki?
Result: 4.1

----------
Test: Terminal half life in Sprague-Dawley rat
Type: ADME, organism-based
Conditions: in vivo, read-out: beta t1/2
readoutKind: half-life

Ask: Fill in the blank: the reported half-life of "COc1ccc2c(Oc3ccc(NC(=O)c4c(C)n(CC(C)(C)O)n(-c5ccccc5)c4=O)nc3)ccnc2c1" is ____.
Result: < 2 h

----------
Target: Hepatocyte growth factor receptor (Homo sapiens)
Assay: Inhibition of c-Met phosphorylation by HTRF assay
readoutKind: pKi
In plain terms, pKi is the concentration in mol/L turned into minus its base-10 logarithm.

Ask: Reported pKi for Hepatocyte growth factor receptor (Homo sapiens), given "COc1ccc2c(Oc3ccc(NC(=O)c4c(C)n(CC(C)(C)O)n(-c5ccccc5)c4=O)cc3F)ccnc2c1" ?
Result: 8.57

----------
Experiment: Inhibition of PDGF
readoutKind: IC50
Report field: quantity (unit follows the number).

Ask: Which IC50 value belongs to "COc1ccc2c(Oc3ccc(NC(=O)c4c(C)n(CC(C)(C)O)n(-c5ccccc5)c4=O)nc3)ccnc2c1" ?
Result: 120 nM
